target: recombinant human kinase domain of JAK3 (Homo sapiens (Human), UniProt P52333); assay: JAK Caliper enzyme assay at 1 mM ATP (JAK3); type: biochemical; settings: 1 mM ATP; read-out: IC50 (nM) JAK3;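 note: microfluidic mobility-shift readout of synthetic peptide phosphorylation, percent product converted from peak heights, normalized to DMSO-only wells as uninhibited baseline, room temperature incubation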
Sequence (P52333 822-1111): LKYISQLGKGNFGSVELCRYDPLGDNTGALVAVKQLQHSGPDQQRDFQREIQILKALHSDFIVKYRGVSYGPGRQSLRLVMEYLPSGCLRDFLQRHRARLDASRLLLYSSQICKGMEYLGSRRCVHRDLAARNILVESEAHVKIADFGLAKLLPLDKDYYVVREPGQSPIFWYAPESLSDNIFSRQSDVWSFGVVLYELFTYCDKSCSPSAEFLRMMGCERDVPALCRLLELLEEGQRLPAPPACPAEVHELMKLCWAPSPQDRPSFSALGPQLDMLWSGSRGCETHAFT
Would you mind telling me the reported IC50 of each entry?

# example entries with known answers
- CNC(=O)c1ncc(Nc2nccc(N3C[C@H]4CC[C@@H](C3)N4Cc3ccno3)n2)cc1C: > 10000 nM
- O=C(C1CC1)N1[C@@H]2CC[C@H]1CN(c1ccnc(Nc3cn[nH]c3)n1)C2: > 10000 nM
- Cn1cc(Nc2nccc(N3C[C@H]4CC[C@@H](C3)N4C(=O)NCCC#N)n2)cn1: > 10000 nM

Let's switch to this compound now.
[in] Determine from records and report IC50 for O=C(N[C@]12C[C@H]1CN(c1nc(Nc3cnn(CCO)c3)ncc1Cl)C2)C1CC1
[out] 3960 nM

----------
target: recombinant human kinase domain of JAK1 (Homo sapiens (Human)); experiment: JAK Caliper enzyme assay at 1 mM ATP (JAK1); type: biochemical; details: 1 mM ATP; read-out: IC50 (nM) JAK1
Sequence (P23458 875-1153): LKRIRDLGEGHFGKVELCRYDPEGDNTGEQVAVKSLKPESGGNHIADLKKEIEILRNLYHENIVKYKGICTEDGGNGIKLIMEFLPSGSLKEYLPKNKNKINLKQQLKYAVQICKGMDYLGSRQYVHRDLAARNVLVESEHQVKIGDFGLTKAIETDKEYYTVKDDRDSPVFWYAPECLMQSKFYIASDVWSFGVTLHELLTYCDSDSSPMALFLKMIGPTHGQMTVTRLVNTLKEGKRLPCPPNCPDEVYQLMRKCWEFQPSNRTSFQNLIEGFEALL
Would you mind telling me the reported IC50 of each entry?
One number for each entry, in nM.

# example entries with known answers
• O=C(C1CC1)N1[C@@H]2CC[C@H]1CN(c1nc(Nc3ccnnc3)ncc1F)C2 = 2730
• CNC(=O)c1ncc(Nc2nccc(N3C[C@H]4CC[C@@H](C3)N4CC3(C)COC3)n2)cc1C = 19
• CNC(=O)c1ncc(Nc2nccc(N3C[C@H]4CC[C@@H](C3)N4C(=O)C3CC3)n2)cc1C = 337
• CCNC(=O)c1ccc(Nc2nccc(N3CC4CC(C3)N4C(=O)C3CC3)n2)cc1C = 8580

Give me IC50 for each of these compounds, listed below.
1. O=C(C1CC1)N1[C@@H]2CC[C@H]1CN(c1ccnc(Nc3cn[nH]c3)n1)C2
2. O=C([C@H]1CC1(F)F)N1[C@@H]2CC[C@H]1CN(c1ccnc(Nc3cn[nH]c3)n1)C2
3. O=C(N[C@]12C[C@H]1CN(c1nc(Nc3cnn(CCO)c3)ncc1Cl)C2)C1CC1
4. O=C([C@@H]1CC1(F)F)N1[C@@H]2CC[C@H]1CN(c1ccnc(Nc3cnc(CCO)c(Cl)c3)n1)C2

[out]
1: 77; 2: 478; 3: 323; 4: 352

----------
molecular target: recombinant human kinase domain of JAK2 (Homo sapiens (Human), UniProt O60674); assay: JAK Caliper enzyme assay at 1 mM ATP (JAK2); format: biochemical;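 note: microfluidic mobility-shift read-out of fluorescent synthetic peptide phosphorylation, percent product converted from peak heights, room temperature, DMSO-only wells as uninhibited baseline, inhibition curve fit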
Sequence (O60674 849-1124): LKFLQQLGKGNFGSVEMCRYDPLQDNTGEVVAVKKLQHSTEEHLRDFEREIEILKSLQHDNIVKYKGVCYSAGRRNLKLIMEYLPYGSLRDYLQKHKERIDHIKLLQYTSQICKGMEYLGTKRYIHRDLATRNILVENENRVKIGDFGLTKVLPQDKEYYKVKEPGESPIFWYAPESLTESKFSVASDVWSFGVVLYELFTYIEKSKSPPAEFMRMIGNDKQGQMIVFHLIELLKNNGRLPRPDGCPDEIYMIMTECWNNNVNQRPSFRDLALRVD
Rule for this label: YES means IC50 is less than 400 nM; NO means IC50 is at least 400 nM.

Previously resolved entries follow.
- CCNC(=O)N1[C@@H]2CC[C@H]1CN(c1ccnc(Nc3cnc(C(=O)NC)c(F)c3)n1)C2 [Example 87]: NO
- O=C([C@@H]1CC1(F)F)N1[C@@H]2CC[C@H]1CN(c1ccnc(Nc3cnc(CCO)c(Cl)c3)n1)C2 [Example 18]: YES
- CNC(=O)c1cc(Nc2nccc(N3C[C@H]4CC[C@@H](C3)N4C(=O)[C@@H]3CC3(F)F)n2)cc(CO)n1 [Example 41]: YES

Pending compound:
[in] Below 400 nM on IC50? Entry O=C([C@@H]1CC1(F)F)N1[C@@H]2CC[C@H]1CN(c1ccnc(Nc3cnc(N4CC(O)C4)c(F)c3)n1)C2 [Example 22]
[out] YES
